Values were extracted from patent US8642609B2.

In this section we review reported Emax values for a set of compounds.
Biological target: ΔF508-CFTR (Homo sapiens, UniProt P13569, DEL508-508)
Construct: expressed in transfected cells
Sequence (P13569 with tags, fused parts or gaps DEL508-508): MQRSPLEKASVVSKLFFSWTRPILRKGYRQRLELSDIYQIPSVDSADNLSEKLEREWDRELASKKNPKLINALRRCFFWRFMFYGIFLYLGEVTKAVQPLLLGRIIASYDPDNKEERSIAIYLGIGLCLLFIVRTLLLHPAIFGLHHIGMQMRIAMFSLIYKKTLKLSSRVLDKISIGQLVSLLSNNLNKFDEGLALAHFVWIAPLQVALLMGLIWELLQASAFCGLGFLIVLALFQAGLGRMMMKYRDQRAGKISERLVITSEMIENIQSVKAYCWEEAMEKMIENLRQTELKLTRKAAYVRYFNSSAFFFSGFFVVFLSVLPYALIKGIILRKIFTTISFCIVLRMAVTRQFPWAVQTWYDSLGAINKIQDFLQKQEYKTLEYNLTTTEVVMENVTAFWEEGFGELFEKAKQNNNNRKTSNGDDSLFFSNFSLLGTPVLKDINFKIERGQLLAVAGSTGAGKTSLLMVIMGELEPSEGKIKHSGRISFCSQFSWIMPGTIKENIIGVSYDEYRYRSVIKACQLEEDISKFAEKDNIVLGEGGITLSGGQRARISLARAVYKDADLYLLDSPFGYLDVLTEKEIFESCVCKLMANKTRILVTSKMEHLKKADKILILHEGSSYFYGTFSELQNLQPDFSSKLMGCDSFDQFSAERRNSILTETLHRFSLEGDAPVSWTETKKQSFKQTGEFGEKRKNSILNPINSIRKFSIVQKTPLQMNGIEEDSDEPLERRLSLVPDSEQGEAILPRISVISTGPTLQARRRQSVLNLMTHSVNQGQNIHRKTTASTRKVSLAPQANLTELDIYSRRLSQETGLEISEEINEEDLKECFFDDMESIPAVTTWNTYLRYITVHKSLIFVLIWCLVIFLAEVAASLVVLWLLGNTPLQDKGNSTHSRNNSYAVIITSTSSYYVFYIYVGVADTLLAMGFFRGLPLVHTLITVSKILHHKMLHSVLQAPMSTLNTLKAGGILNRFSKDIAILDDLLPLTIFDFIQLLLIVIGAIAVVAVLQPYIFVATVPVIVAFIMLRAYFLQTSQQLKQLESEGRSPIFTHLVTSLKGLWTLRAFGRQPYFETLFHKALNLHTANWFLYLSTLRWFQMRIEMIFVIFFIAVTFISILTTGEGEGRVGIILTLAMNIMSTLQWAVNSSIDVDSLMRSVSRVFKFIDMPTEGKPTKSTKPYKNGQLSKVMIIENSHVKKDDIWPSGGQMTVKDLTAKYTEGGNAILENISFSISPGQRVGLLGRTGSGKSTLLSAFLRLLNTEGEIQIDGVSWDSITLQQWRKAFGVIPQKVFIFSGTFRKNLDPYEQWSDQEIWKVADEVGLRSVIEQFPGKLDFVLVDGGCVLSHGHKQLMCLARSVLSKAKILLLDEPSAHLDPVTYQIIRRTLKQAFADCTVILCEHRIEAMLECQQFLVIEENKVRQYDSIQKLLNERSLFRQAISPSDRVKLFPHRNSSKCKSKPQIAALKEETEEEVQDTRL
Assay: Membrane potential optical assay (FRET/VIPR), identification of correction compounds
Assay type: cell-based
Settings: relative efficacy
quantity-name: Emax

compound	reading
Cc1cccc(S(=O)(=O)N2CCN(C(C)c3nc4ccc(Cl)cc4c(=O)n3C)CC2)c1 (stereo not shown)	25 to 100%
COc1ccc(S(=O)(=O)N2CCN(C(C)c3nc4ccc(N)cc4c(=O)n3C)CC2)cc1 (stereo not shown)	25 to 100%
CC(c1nc2ccccc2c(=O)n1C)N1CCN(C(=O)c2cccc(Cl)c2)CC1 (stereo not shown)	< 25%
CC(c1nc2ccc(S(C)(=O)=O)cc2c(=O)n1C)N1CCN(S(=O)(=O)c2ccccc2)CC1 (stereo not shown)	< 25%
CCCn1c(C(C)N2CCN(S(=O)(=O)c3ccc(F)cc3)CC2)nc2ccccc2c1=O (stereo not shown)	25 to 100%
COc1ccc(S(=O)(=O)N(C)CCN(C(C)c2nc3ccccc3c(=O)n2C)S(=O)(=O)c2ccc(OC)cc2)cc1 (stereo not shown)	< 25%
CC(=O)Nc1nc(C)c(S(=O)(=O)N2CCN(C(C)c3nc4ccccc4c(=O)n3C)CC2)s1 (stereo not shown)	25 to 100%
CC(c1nc2cc(Cl)ccc2c(=O)n1C)N1CCN(S(=O)(=O)c2ccc(Cl)cc2)CC1 (stereo not shown)	25 to 100%
CCCn1c(C(C)N2CCN(S(=O)(=O)c3ccc(C)cc3)CC2)nc2ccccc2c1=O (stereo not shown)	> 100%
CC(c1nc2ccccc2c(=O)[nH]1)N1CCN(S(=O)(=O)c2ccc(Cl)cc2)CC1 (stereo not shown)	< 25%
CC(c1nc2ccccc2c(=O)n1C)N1CCC(NS(=O)(=O)c2ccc(Cl)cc2)C1 (stereo not shown)	< 25%
CC(c1nc2ccccc2c(=O)n1C)N(C)C1CCN(S(=O)(=O)c2ccc(Cl)cc2)CC1 (stereo not shown)	25 to 100%
CCNc1nc(C(C)N2CCN(S(=O)(=O)c3ccc(Cl)cc3)CC2)nc2ccccc12 (stereo not shown)	25 to 100%
COc1ccc(S(=O)(=O)N2CCN(C(C)c3nc(N4CCC(C(=O)O)CC4)c4ccccc4n3)CC2)cc1 (stereo not shown)	< 25%
CC(NCCCNS(=O)(=O)c1ccc(Br)cc1)c1nc2ccccc2c(=O)n1C (stereo not shown)	25 to 100%
COc1ccc(S(=O)(=O)N2CCN(Cc3nc4ccc(Cl)cc4c(=O)n3C)CC2)cc1	25 to 100%
CSc1ccc(S(=O)(=O)N2CCN(C(C)c3nc4ccccc4c(=O)n3C)CC2)cc1 (stereo not shown)	< 25%
CC(c1nc2ccccc2c(=O)n1C)N1CCN(S(=O)(=O)c2ccc(F)cc2)CC1 (stereo not shown)	25 to 100%
Cc1nn(C)c(Cl)c1S(=O)(=O)N1CCN(C(C)c2nc3ccccc3c(=O)n2C)CC1 (stereo not shown)	< 25%
CC(c1nc2ccc(Cl)cc2c(=O)n1C)N1CCN(C(=O)Nc2ccccc2Br)C(C)C1 (stereo not shown)	25 to 100%
CC(c1nc2ccccc2c(=O)n1C)N1CCN(S(=O)(=O)c2cccc3nonc23)CC1 (stereo not shown)	< 25%
Cc1ccc(S(=O)(=O)N2CCN(C(C)c3nc4ccc(C#N)cc4c(=O)n3C)CC2)cc1 (stereo not shown)	25 to 100%
COc1ccc(S(=O)(=O)N2CCN(C(C)c3nc4ccc(-c5nnn[nH]5)cc4c(=O)n3C)CC2)cc1 (stereo not shown)	25 to 100%
CC(c1nc2ccccc2c(=O)n1C)N(C[C@@H]1CCCCN1S(=O)(=O)c1ccc(Br)cc1)S(=O)(=O)c1ccc(Br)cc1 (stereo partly shown)	< 25%
Cc1ccc(C(=O)N2CCN(C(C)c3cc4ccc(Cl)cc4c(=O)n3C)CC2)cc1 (stereo not shown)	< 25%
